target: recombinant human Bcl-2 D103Y protein (Homo sapiens (Human), UniProt P10415, D103Y); experiment: Bcl-2-D103Y Biochemical Assay (TR-FRET); settings: TR-FRET, FITC labeled Bak peptide
Sequence (P10415 whole entry D103Y): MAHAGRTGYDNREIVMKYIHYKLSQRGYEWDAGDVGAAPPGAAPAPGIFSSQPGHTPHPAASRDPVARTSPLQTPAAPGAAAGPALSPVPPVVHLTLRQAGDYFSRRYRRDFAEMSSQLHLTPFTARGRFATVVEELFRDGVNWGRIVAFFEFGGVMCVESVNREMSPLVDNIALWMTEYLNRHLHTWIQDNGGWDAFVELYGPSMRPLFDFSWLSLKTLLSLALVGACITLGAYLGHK
observable: IC50 (pM)

1. COc1cc(CN2CCN(C3CC4(C3)CN(c3ccc(C(=O)NS(=O)(=O)c5ccc(NC[C@H]6CC[C@](C)(O)CC6)c([N+](=O)[O-])c5)c(Oc5cnc6[nH]cc(F)c6c5)c3)C4)[C@H](c3ccccc3C(C)C)C2)cc2cc(C)oc12
1000
2. CC(C)c1ccccc1C1CN(Cc2ccccn2)CCN1C1CC2(CCN(c3ccc(C(=O)NS(=O)(=O)c4ccc(NC[C@H]5CC[C@](C)(O)CC5)c([N+](=O)[O-])c4)c(Oc4cnc5[nH]ccc5c4)c3)CC2)C1 (stereo partly shown)
290
3. COc1ccc(CN2CCN(C3CC4(CCN(c5ccc(C(=O)NS(=O)(=O)c6ccc(NC[C@H]7CC[C@](C)(O)CC7)c([N+](=O)[O-])c6)c(Oc6cnc7[nH]ccc7c6)c5)CC4)C3)C(c3ccccc3C(C)C)C2)cc1F (stereo partly shown)
670
4. COc1ccc(CN2CCN(C3CC4(C3)CN(c3ccc(C(=O)NS(=O)(=O)c5ccc(NC[C@H]6CC[C@](C)(O)CC6)c([N+](=O)[O-])c5)c(Oc5cnc6[nH]ccc6c5)c3)C4)C(c3ccccc3C(C)C)C2)cc1 (stereo partly shown)
160
5. COc1ccc(CN2CCN(C3CC4(CCN(c5ccc(C(=O)NS(=O)(=O)c6ccc(NC[C@H]7CC[C@](C)(O)CC7)c([N+](=O)[O-])c6)c(Oc6cnc7[nH]ccc7c6)c5)CC4)C3)C(c3ccccc3C(C)C)C2)nc1OC (stereo partly shown)
72
6. CC(C)c1ccccc1[C@@H]1CN(Cc2ccc(C3COC3)cc2)CCN1C1CC2(C1)CN(c1ccc(C(=O)NS(=O)(=O)c3ccc(NC[C@H]4CC[C@](C)(O)CC4)c([N+](=O)[O-])c3)c(Oc3cnc4[nH]cc(F)c4c3)c1)C2
95
7. COc1cc(CN2CCN(C3CC4(C3)CN(c3ccc(C(=O)NS(=O)(=O)c5ccc(NC[C@H]6CC[C@](C)(O)CC6)c([N+](=O)[O-])c5)c(Oc5cnc6[nH]cc(F)c6c5)c3)C4)[C@H](c3ccccc3C(C)C)C2)ccc1C1CC1
950
8. COc1cc(CN2CCN(C3CC4(C3)CN(c3ccc(C(=O)NS(=O)(=O)c5ccc(NC[C@H]6CC[C@](C)(O)CC6)c([N+](=O)[O-])c5)c(Oc5cnc6[nH]cc(F)c6c5)c3)C4)[C@H](c3ccccc3C(C)C)C2)ccc1OC1CC1
140
9. CC(C)c1ccccc1[C@@H]1CN(Cc2ccc3c(c2)OCCC3)CCN1C1CC2(CCN(c3ccc(C(=O)NS(=O)(=O)c4ccc(NC[C@H]5CC[C@](C)(O)CC5)c([N+](=O)[O-])c4)c(Oc4cnc5[nH]ccc5c4)c3)CC2)C1
470
10. COc1cc(CN2CCN(C3CC4(CCN(c5ccc(C(=O)NS(=O)(=O)c6ccc(NC[C@H]7CC[C@](C)(O)CC7)c([N+](=O)[O-])c6)c(Oc6cnc7[nH]ccc7c6)c5)CC4)C3)[C@H](c3ccccc3C(C)C)C2)cc2c1OCC2(C)C
190
11. CC(C)c1ccccc1C1CN(Cc2ccoc2)CCN1C1CC2(CCN(c3ccc(C(=O)NS(=O)(=O)c4ccc(NC[C@H]5CC[C@](C)(O)CC5)c([N+](=O)[O-])c4)c(Oc4cnc5[nH]ccc5c4)c3)CC2)C1 (stereo partly shown)
250
12. COc1cc(CN2CCN(C3CC4(C3)CN(c3ccc(C(=O)NS(=O)(=O)c5ccc(NC[C@H]6CC[C@](C)(O)CC6)c([N+](=O)[O-])c5)c(Oc5cnc6[nH]cc(F)c6c5)c3)C4)[C@H](c3ccccc3C(C)C)C2)cc2ccoc12
310
13. CC(C)c1ccccc1C1CN(Cc2ccc(S(C)(=O)=O)cc2)CCN1C1CC2(CCN(c3ccc(C(=O)NS(=O)(=O)c4ccc(NC[C@H]5CC[C@](C)(O)CC5)c([N+](=O)[O-])c4)c(Oc4cnc5[nH]ccc5c4)c3)CC2)C1 (stereo partly shown)
170
14. COc1ccc(CN2CCN(C3CC4(CCN(c5ccc(C(=O)NS(=O)(=O)c6ccc(NC[C@H]7CC[C@](C)(O)CC7)c([N+](=O)[O-])c6)c(Oc6cnc7[nH]ccc7c6)c5)CC4)C3)C(c3ccccc3C3CC3)C2)cc1 (stereo partly shown)
310
15. COc1cc(CN2CCN(C3CC4(CCN(c5ccc(C(=O)NS(=O)(=O)c6ccc(NC[C@H]7CC[C@](C)(O)CC7)c([N+](=O)[O-])c6)c(Oc6cnc7[nH]cc(F)c7c6)c5)CC4)C3)[C@H](c3ccccc3C(C)C)C2)cc2c1OCC2(C)C
490
16. CC(C)c1ccccc1C1CN(Cc2ccccc2F)CCN1C1CC2(CCN(c3ccc(C(=O)NS(=O)(=O)c4ccc(NC[C@H]5CC[C@](C)(O)CC5)c([N+](=O)[O-])c4)c(Oc4cnc5[nH]ccc5c4)c3)CC2)C1 (stereo partly shown)
1800
